Tested on: K-562 leukemia
Assay: NCI-60 one-dose screen, 48 h
Conditions: 10 µM unless noted
The panel holds about 83,000 compounds, 20% with a hit somewhere; the sample as a whole holds those more often. Activity calls are given as the source filed them. The calls were made as follows: active = growth percent below 10; inactive = the rest.
Pick one: 1.0 (active), 0.0 (inactive)

| Molecule | Category |
| --- | --- |
| COc1cc(C=Nc2oc(-c3ccccc3)c(-c3ccccc3)c2C#N)cc(CN2CCCCC2)c1O | 0.0 |
| Cc1cc(C)nc(SC2=C(Nc3cc(Cl)ccc3O)C(=O)N(Cc3ccccc3)C2=O)n1 | 0.0 |
| O=C1c2cc3c(cc2-c2c1c1cc(F)c(F)cc1c(=O)n2CCCn1ccnc1)OCO3 | 1.0 |
| Cc1ccc(NC(=O)/C=C/c2ccccc2)c(C(N)=O)c1 | 0.0 |
| CSc1nc(-c2cccc(NC(=O)CCl)c2)c(C#N)c(=O)n1C | 0.0 |

**Q:** Could you check what this test reported for `O=C(N=Nc1c(O)[nH]c2ccccc12)c1cc(-c2ccccc2)on1` ?
**A:** 0.0

**Q:** Could you check what this test reported for `CCCCN(CCCC)CCCn1c(-c2ccccc2)ccc1-c1ccccc1` ?
**A:** 0.0

**Q:** Could you check what this test reported for `CC1=NN(c2nc(-c3ccc(Cl)cc3)c(C#N)c(N3CCOCC3)n2)C(=O)C1` ?
**A:** 0.0

**Q:** Could you check what this test reported for `CCCc1cc(=O)n2c(C(=O)Nc3ccc(F)cc3)c(C(=O)Nc3ccc(F)cc3)sc2n1` ?
**A:** 0.0

**Q:** Could you check what this test reported for `CC1=CC(=NN=c2cc(C)n([O-])c(C)c2)C=C(C)[N+]1=O` ?
**A:** 0.0

**Q:** Could you check what this test reported for `O=C1CC[C@H](c2ccc(O)c3c2C(=O)[C@@H]2O[C@@H]2C3=O)c2cccc(O)c21` ?
**A:** 1.0

---

System: NCI-H460 lung
Experiment: NCI-60 one-dose screen, 48 h (100 = growth as untreated, 0 = no growth, -100 = all killed)
Details: 10 µM unless noted
This is part of a sample that, as a whole, favours compounds with a hit. Of some 83,000 tested, about 20% had one in any assay. Activity calls are given as the source filed them. How the source made its calls: active means growth percent below 10; inactive means the rest.
Measured Metric: growth

| Compound | System | Measured Metric | Result |
| --- | --- | --- | --- |
| COc1ccc(NC(=O)c2ccc(/C=C/C(=O)c3ncc[nH]3)cc2)cc1 | NCI-H460 lung | growth | 64% (inactive) |

**Q:** # lookup: growth of Cc1ccc2c(C(C[N+](=O)[O-])c3ccccc3)c(-c3ccccc3)[nH]c2c1 (stereo unspecified)
**A:** 12.2% [9.5 µM] (inactive)

**Q:** # lookup: growth of `C=C1c2nc3ccccc3n2C=C(c2cccc(Cl)c2)N1Cc1ccc(OC)cc1`
**A:** 4.58% (active)

---

Below, each entry is listed alongside its reported growth.
Test system: OVCAR-5 ovarian
Assay: NCI-60 one-dose screen, 48 h (100 = growth as untreated, 0 = no growth, -100 = all killed)
Conditions: 10 µM unless noted
This is part of a sample that, as a whole, favours compounds with a hit. Of some 83,000 tested, about 20% had one in any assay. Calls of active or inactive are those of the source. How the source made its calls: active means growth percent below 10; inactive means the rest.

Consider the worked cases shown below.
| Compound | System | Result |
| --- | --- | --- |
| COc1cccc(/C=C2\SC(=Nc3ccc(NC(C)=O)cc3)NC2=O)c1OC | OVCAR-5 ovarian | 91.7% (inactive) |
| Cc1ncc(C(=O)Nc2ccc(CN3CCN(C)CC3)c(C(F)(F)F)c2)cc1C#Cc1cnc2cccnn12 | OVCAR-5 ovarian | 13.8% (inactive) |
| Cn1cccc1-c1nc2c3c(ccc2[nH]1)C(=O)c1ccccc1C3=O | OVCAR-5 ovarian | 90.4% (inactive) |
| CCC(=O)c1ccc(Cl)s1 | OVCAR-5 ovarian | 105% (inactive) |
| COc1ccc(-c2nc3cc(C(=O)Nc4cc(OC)c(OC)c(OC)c4)ccc3n2C2CCCCC2)cc1 | OVCAR-5 ovarian | 98.1% (inactive) |

**Q:** # lookup: growth of c1csc(C2=NN3C(C2)c2ccccc2OC3c2ccncc2)c1 (stereo not given)
**A:** 108% (inactive)

**Q:** # lookup: growth of `COc1ccc2c(c1)CC/C(=C\c1cncc(Br)c1)C2=O`
**A:** 86.8% (inactive)

**Q:** # lookup: growth of `COc1ccc2c(c1)O/C(=C\c1cccc(OCC(=O)Nc3nc4c(s3)CCCC4)c1)C2=O`
**A:** 103% (inactive)

**Q:** # lookup: growth of `CCCN1CCN(c2ccc3nc(-c4ccc5nc(-c6ccc(OCC)cc6)[nH]c5c4)[nH]c3c2)CC1`
**A:** 62% (inactive)

**Q:** # lookup: growth of `COc1cc2nnc3c4cccnc4[nH]c3c2cc1OC`
**A:** 75% (inactive)

**Q:** # lookup: growth of `COc1cccc(-c2nc(SCC(=O)Nc3ccc(C(=O)/C=C/c4ccc(OC)c(OC)c4)cc3)[nH]c(=O)c2C#N)c1`
**A:** 110% (inactive)

**Q:** # lookup: growth of `CCOc1ccc(-n2nc(C(=O)Nc3cc(OC)c(OC)c(OC)c3)nc2-c2cc(OC)c(OC)c(OC)c2)cc1`
**A:** 102% (inactive)

**Q:** # lookup: growth of CC1SC(c2ccc(N(C)C)cc2)N(NC(=O)C(O)(c2ccccc2)c2ccccc2)C1=O (stereo not given)
**A:** 104% (inactive)

**Q:** # lookup: growth of `COc1cccc(/C=C2\Oc3cc(OCCN4CCCC4)ccc3C2=O)c1`
**A:** 100% (inactive)

**Q:** # lookup: growth of COc1cccc2c1C(=O)c1c(O)c3c(c(O)c1C2=O)C[C@](O)(C(=O)CO)C[C@H]3O[C@@H]1C[C@@H](NC(=O)CCCCCN(C)C2(c3ccc(F)cc3)CC3CCC2C3)[C@H](O)[C@@H](C)O1 (stereo not given in full)
**A:** -51.6% (active)

**Q:** # lookup: growth of Cc1ccc2oc(=O)cc(C3c4ccc([nH]4)C(c4cc(=O)oc5ccc(C)cc45)c4ccc([nH]4)C(c4cc(=O)oc5ccc(C)cc45)c4ccc([nH]4)C(c4cc(=O)oc5ccc(C)cc45)c4ccc3[nH]4)c2c1 (stereo not given)
**A:** -11.7% (active)

**Q:** # lookup: growth of Cc1cc(N2CCN(C)CC2)nc(NC2CCCC(Nc3ccnc4cc(Cl)ccc34)C2)n1 (stereo not given)
**A:** 9.67% (active)

**Q:** # lookup: growth of `C=C1C(=O)O[C@H]2[C@H]1CC/C(COC(=O)NCCc1ccc(OC)c(OC)c1)=C\CC[C@@]1(C)O[C@@H]21`
**A:** 82.8% (inactive)

**Q:** # lookup: growth of `CSc1nc(Nc2cccc(NC(=O)CCl)c2)c(C#N)c(-c2cccc([N+](=O)[O-])c2)n1`
**A:** 78.7% (inactive)

**Q:** # lookup: growth of `C=CC(=O)Nc1cccc(-c2nc(SC)nc(NCCc3ccc(OC)c(OC)c3)c2C#N)c1`
**A:** 91.7% (inactive)

**Q:** # lookup: growth of `CC1=CC(C)(C)Nc2ccc(Cc3ccc4c(c3)C(C)=CC(C)(C)N4)cc21`
**A:** 89.7% (inactive)

**Q:** # lookup: growth of `C=C1C(=O)O[C@H]2[C@H]1CC/C(COC(=O)NCc1ccc(OC)c(OC)c1)=C\CC[C@@]1(C)O[C@@H]21`
**A:** 85.1% (inactive)

**Q:** # lookup: growth of `O=C1c2c(O)cc(O)cc2-c2c(-c3ccc(O)cc3)oc3cc(O)cc1c23`
**A:** 111% (inactive)

**Q:** # lookup: growth of `CCOc1ccc(-n2nc(C(=O)Nc3ccccc3)nc2-c2cc(OC)c(OC)c(OC)c2)cc1`
**A:** 84.1% (inactive)

**Q:** # lookup: growth of `O=C1c2cc3c(cc2-c2c1c1ccc(Cl)cc1c(=O)n2CCCN1CCOCC1)OCO3`
**A:** 109% (inactive)

---

System: CCRF-CEM leukemia
Test: NCI-60 one-dose screen, 48 h (100 = growth as untreated, 0 = no growth, -100 = all killed)
Conditions: 10 µM unless noted
The panel holds about 83,000 compounds, 20% with a hit somewhere; the sample as a whole holds those more often. Activity calls are given as the source filed them. The calls were made as follows: active = growth percent below 10; inactive = the rest.
Measured Metric: growth

Consider the worked cases shown below.
| Compound | Result |
| --- | --- |
| COc1ccc(NC(=O)c2ccc(/C=C/C(=O)c3ncc[nH]3)cc2)cc1 | 29.1% (inactive) |
| CCCCCCCCCCCCC[N+](C)(C)Cc1ccccc1 | -14.8% (active) |
| CCNc1ncnc2c1cnn2C1CCCO1 (configuration not stated) | 87.6% (inactive) |

**Q:** # lookup: growth of CSc1ccc(SC2c3ccc(C)cc3Oc3nc(N)c(C#N)c(N)c32)cc1 (configuration not stated)
**A:** -37% (active)

**Q:** # lookup: growth of `O=S(=O)(Nc1ccc(OC(F)F)cc1)c1ccc(-c2cnc(C3CC3)o2)cc1`
**A:** 66.8% (inactive)

**Q:** # lookup: growth of `COc1ccc(C(=O)COc2ccc(/C=C3\Oc4ccc(OC)cc4C3=O)cc2)cc1`
**A:** 72.6% (inactive)

**Q:** # lookup: growth of CCCCC(=O)OCC1OC(n2cnc3c(=S)nc[nH]c32)C(OC(=O)CCCC)C1OC(=O)CCCC (configuration not stated)
**A:** 28.4% (inactive)

# credit: PubChem BioAssay (NCI)
